# Test system: CEM cell line
# test-description: DNS cytotoxicity assay, CEM
# Assay type: cell-based, human
# protocol-conditions: Initial Screen; DNS assay; read-out: CEM CC50
The compounds listed here are annotated with their CC50.
quantity-name: CC50 (µM)

- compound: "Cc1ccc2c(c1)/C(=N/NC(=O)c1n[nH]c3c1CCC3)C(=O)N2 [SSK-4]"
  obs-value: 5.02
- compound: "Cc1ccc2c(c1)/C(=N/NC(=O)c1n[nH]c3c1CCC3)C(=O)N2 [SSK-3]"
  obs-value: 1.39

###

# test-description: DNS cytotoxicity assay, HS-27 non-cancerous fibroblast
# Type: cell-based
# protocol-conditions: human, Hs-27 non-cancerous foreskin fibroblast cells; 72 hr incubations; non-cancerous; read-out: Cell Line CC50 HS-27*

- molecule: "CCN(CC)c1ccc(/C=N/NC(=O)c2n[nH]c3c2CCC3)cc1 [P3C.4]"
  units-symbol: "µM"
  value-relation-sign: ">"
  CC50 at 72 h: 10
- molecule: "COc1ccc(/C=N/NC(=O)c2n[nH]c3c2CCC3)cc1O [P3C.10]"
  units-symbol: "µM"
  value-relation-sign: ">"
  CC50 at 72 h: 10
- molecule: "O=C(N/N=C/c1c(O)ccc2ccccc12)c1n[nH]c2c1CCCC2 [P3C.3]"
  units-symbol: "µM"
  value-relation-sign: ">"
  CC50 at 72 h: 10
- molecule: "O=C(N/N=C/c1ccc(Br)cc1)c1n[nH]c2c1CCC2 [P3C.1]"
  units-symbol: "µM"
  value-relation-sign: "="
  CC50 at 72 h: 0.78
- molecule: "O=C(N/N=C/c1cc(Br)cc(Br)c1O)c1n[nH]c2c1CCC2 [P3C.6]"
  units-symbol: "µM"
  value-relation-sign: "="
  CC50 at 72 h: 9.94
- molecule: "O=C(N/N=C/c1cccc2ccccc12)c1n[nH]c2c1CCC2 [P3C.2]"
  units-symbol: "µM"
  value-relation-sign: "="
  CC50 at 72 h: 4.1
- molecule: "O=C(N/N=C/c1ccccc1Br)c1n[nH]c2c1CCC2 [P3C.5]"
  units-symbol: "µM"
  value-relation-sign: ">"
  CC50 at 72 h: 10
